- assayProcedure: Oral bioavailability in Sprague-Dawley rat at 10 mg/kg measured for 24 hrs by LC-MS/MS analysis
- Type: ADME, organism-based
- assaySetup: in vivo
parameterMeasured: bioavailability (%)
Write the value in % as a bare number.

Reported bioavailability for COc1cc(F)ccc1[C@H]1CSc2cc(O)ccc2[C@H]1c1ccc(OCCN2CC(CF)C2)cc1 was 19.9
